Source listed as patent US12624044B2.

- SYSTEM: UniProtKB P51531
- ASSAY METHOD TEXT: MSD SMARCA2 degradation in A549 cell line
- Format: cell-based
- CONDITIONS USED: A549 cells, 24 h, read-out: SMARCA2 MSD A549 degradation 24 h: Average external-Abs DC50
Recorded measurements of DC50, one per entry

Request: Look up and state reported DC50 for Cc1ncsc1-c1ccc(CNC(=O)[C@@H]2C[C@@H](O)CN2C(=O)[C@@H](NC(=O)[C@H]2CC[C@H](CN3CCC(c4cnc(N5C6CCC5CN(c5cc(-c7ccccc7O)nnc5N)C6)nc4)CC3)CC2)C(C)(C)C)cc1
Response: 100 to 500 nM

Request: Look up and state reported DC50 for O=C1CCC(n2c(=O)oc3c(CCCOC4CCN(Cc5cccc(C#Cc6cc(NC(=O)Nc7cc(F)ncc7CO)ccn6)c5)CC4)cccc32)C(=O)N1 (stereo not drawn)
Response: > 1000 nM

Request: Look up and state reported DC50 for Cc1ncsc1-c1ccc(CNC(=O)[C@@H]2C[C@@H](O)CN2C(=O)[C@@H](NC(=O)CCN2CCN(Cc3ccc(-c4cc(-c5ccccc5O)nnc4N)cc3)CC2)C(C)(C)C)cc1
Response: > 1000 nM

---

Recorded measurements of Dmax, one per entry
- SYSTEM: SMARCA2 (Homo sapiens)
- Sequence (P51531 whole entry): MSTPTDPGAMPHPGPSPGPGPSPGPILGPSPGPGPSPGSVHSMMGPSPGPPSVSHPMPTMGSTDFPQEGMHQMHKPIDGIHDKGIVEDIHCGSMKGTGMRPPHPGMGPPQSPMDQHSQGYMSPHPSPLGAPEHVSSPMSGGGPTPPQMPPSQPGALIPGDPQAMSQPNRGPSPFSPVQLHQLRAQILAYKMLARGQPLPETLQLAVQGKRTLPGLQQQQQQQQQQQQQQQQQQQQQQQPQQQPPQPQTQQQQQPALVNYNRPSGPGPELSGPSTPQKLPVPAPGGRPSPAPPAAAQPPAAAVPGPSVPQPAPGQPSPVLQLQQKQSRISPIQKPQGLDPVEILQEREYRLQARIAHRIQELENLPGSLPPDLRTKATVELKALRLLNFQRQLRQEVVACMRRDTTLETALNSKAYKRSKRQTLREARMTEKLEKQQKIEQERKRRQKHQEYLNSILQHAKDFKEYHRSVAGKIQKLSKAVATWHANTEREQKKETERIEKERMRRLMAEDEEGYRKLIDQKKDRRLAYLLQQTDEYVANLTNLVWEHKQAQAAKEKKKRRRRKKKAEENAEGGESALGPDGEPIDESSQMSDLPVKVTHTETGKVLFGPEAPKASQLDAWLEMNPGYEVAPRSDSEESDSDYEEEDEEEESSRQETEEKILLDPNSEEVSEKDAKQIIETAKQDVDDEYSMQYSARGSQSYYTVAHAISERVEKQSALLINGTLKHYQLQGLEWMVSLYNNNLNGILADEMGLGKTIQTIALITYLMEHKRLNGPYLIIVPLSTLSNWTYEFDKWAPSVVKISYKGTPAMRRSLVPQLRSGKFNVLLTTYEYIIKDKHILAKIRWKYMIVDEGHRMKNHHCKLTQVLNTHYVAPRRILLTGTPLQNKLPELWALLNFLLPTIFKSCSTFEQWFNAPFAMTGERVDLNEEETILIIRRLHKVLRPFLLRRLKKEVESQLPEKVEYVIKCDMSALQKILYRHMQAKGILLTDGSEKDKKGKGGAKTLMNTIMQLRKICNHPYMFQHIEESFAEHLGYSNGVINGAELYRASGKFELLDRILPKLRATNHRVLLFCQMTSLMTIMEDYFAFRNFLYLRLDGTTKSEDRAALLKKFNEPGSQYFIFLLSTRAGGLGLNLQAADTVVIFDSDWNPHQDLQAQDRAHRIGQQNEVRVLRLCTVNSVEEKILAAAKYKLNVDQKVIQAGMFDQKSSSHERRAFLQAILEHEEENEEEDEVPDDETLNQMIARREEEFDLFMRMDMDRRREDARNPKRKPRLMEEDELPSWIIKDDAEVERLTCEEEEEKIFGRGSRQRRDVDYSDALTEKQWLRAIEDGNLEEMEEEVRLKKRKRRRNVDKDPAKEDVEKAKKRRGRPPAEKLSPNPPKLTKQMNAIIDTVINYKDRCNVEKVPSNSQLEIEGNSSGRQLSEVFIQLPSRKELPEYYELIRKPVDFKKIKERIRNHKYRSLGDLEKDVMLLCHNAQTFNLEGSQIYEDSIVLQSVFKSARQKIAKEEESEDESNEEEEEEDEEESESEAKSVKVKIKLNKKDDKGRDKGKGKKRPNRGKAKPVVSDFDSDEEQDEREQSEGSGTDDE
- ASSAY METHOD TEXT: SMARCA2 Western blot MV4-11 degradation
- Assay type: cell-based
- CONDITIONS USED: MV4-11, MV4-11 cells, 24 h, read-out: SMARCA2 WB MV411 degradation 24 h: Average Dmax %
- Description: Cells were seeded into 6-well plates (MV4-11: 4×10^6 cells/well/1 ml) and 1 ml of 2× compound solution was added into the well to make the final concentration and the plates were mixed well and incubated for 24 hours (No cytotoxicity was observed). The cell were collected with media and spun at 3000 rpm for 5 minutes. […] The membrane was washed three times with TBST, 5 minutes each and lastly the LiCOR was read. […]

Cc1ncsc1-c1ccc(CNC(=O)[C@@H]2C[C@@H](O)CN2C(=O)[C@@H](NC(=O)[C@H]2CC3(C2)C[C@H](c2cnc(N4C5CCC4CN(c4cc(-c6ccccc6O)nnc4N)C5)nc2)C3)C(C)(C)C)cc1 (stereo partly drawn); > 90%
Cn1c(=O)n(C2CCC(=O)NC2=O)c2ccc(CCCCCCCc3nccc(N4C5CCC4CN(c4cc(-c6ccccc6O)nnc4N)C5)n3)cc21 (stereo not drawn); 70 to 90%
Cc1ncsc1-c1ccc(C2(NC(=O)[C@@H]3C[C@@H](O)CN3C(=O)[C@@H](NC(=O)[C@H]3CC[C@H](c4cnc(N5C6CCC5CN(c5cc(-c7ccccc7O)nnc5N)C6)nc4)CC3)C(C)(C)C)CC2)cc1; > 90%
Cc1ncsc1-c1ccc(CNC(=O)[C@@H]2C[C@@H](O)CN2C(=O)[C@@H](NC(=O)[C@H]2CC[C@H](c3cnc(N4C5CCC4CN(c4cc(-c6ccccc6O)nnc4N)C5)nc3)CC2)C(C)(C)C)c(C(F)(F)F)c1; > 90%
Cc1ncsc1-c1ccc(CNC(=O)[C@@H]2C[C@@H](O)CN2C(=O)[C@@H](NC(=O)CN2C3CCC2CC(c2cnc(N4C5CCC4CN(c4cc(-c6ccccc6O)nnc4N)C5)nc2)C3)C(C)(C)C)cc1 (stereo partly drawn); 70 to 90%

Request: Look up and state reported Dmax for Cc1ncsc1-c1ccc(CNC(=O)[C@@H]2C[C@@H](O)CN2C(=O)[C@@H](NC(=O)C2CCC(c3cnc(N4C5CCC4CN(c4cc(-c6ccccc6O)nnc4N)C5)nc3)CC2)C(C)(C)C)cc1 (stereo partly drawn)
Response: > 90%

Request: Look up and state reported Dmax for Cc1ncsc1-c1ccc(CNC(=O)[C@@H]2C[C@@H](O)CN2C(=O)[C@@H](NC(=O)[C@H]2CC[C@H](Cc3cnc(N4C5CCC4CN(c4cc(-c6ccccc6O)nnc4N)C5)nc3)CC2)C(C)(C)C)cc1
Response: > 90%

Request: Look up and state reported Dmax for Cc1ncsc1-c1ccc(CNC(=O)[C@@H]2C[C@@H](O)CN2C(=O)[C@@H](NC(=O)[C@H]2CC[C@H](c3cnc(N4C5CCC4CN(c4cc(-c6ccccc6O)nnc4N)C5)nc3)CC2)C(C)(C)C)c(OC(F)(F)F)c1
Response: > 90%

Request: Look up and state reported Dmax for Cc1ncsc1-c1ccc(CNC(=O)[C@@H]2C[C@@H](O)CN2C(=O)[C@@H](NC(=O)[C@H]2CC[C@H](CCN3CCC(n4cc(-c5cc(-c6ccccc6O)nnc5N)cn4)CC3)CC2)C(C)(C)C)cc1
Response: > 90%
